Origin of measurements: patent US4044132A

# measurement.protocol: Acute toxicity (50% lethal dose, determined graphically)
# Format: in vivo, mice (CDl)
# conditions.used: mouse, in vivo; CDl mice; intravenous; read-out: Acute toxicity LD 50, intravenous administration
Would you mind telling me the reported LD50 of each entry?
One number for each entry, in mg/kg.

Fc1ccc(N2CCNCC2)cc1C(F)(F)F [SLC-001, reference compound]; 59
CCNC(C)Cc1cccc(C(F)(F)F)c1 (stereo not drawn) [Fenfluramine, reference compound]; 42

Okay, next one:
Exercise: Need LD50 of Fc1ccc(N2CCNCC2)cc1SC(F)(F)F , thanks.
Solution: 60

###

Would you mind telling me the reported LD50 of each entry?
# measurement.protocol: Acute toxicity (50% lethal dose, determined graphically)
# Assay type: in vivo, mice (CDl)
# conditions.used: mouse, in vivo; CDl mice; oral; read-out: Acute toxicity LD 50, oral administration
One number for each entry, in mg/kg.

CCNC(C)Cc1cccc(C(F)(F)F)c1 (stereo not drawn) [Fenfluramine, reference compound]; 195
Fc1ccc(N2CCNCC2)cc1SC(F)(F)F; 150

Exercise: Need LD50 of Fc1ccc(N2CCNCC2)cc1C(F)(F)F [SLC-001, reference compound] , thanks.
Solution: 150
